// provenance: patent US20220193132A1

biological target: T1, recombinant human EGFRvIII protein (extracellular domain), native (human, UniProt P00533 298-623); assay: ELISA Exp 2, purified mAb 1 ug/ml;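 further: ELISA of purified mAb binding to plate-coated antigen, native or heat/DTT-denatured, with pNPP substrate developed for 30 min and incubations at room temperature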
T1 construct: also called hEGFRvIII
result.type: ELISA absorbance 405 nm (A405)

F266-11B1 (antibody, V domains shown, Mouse hybridoma mAb) VH: QIQLVQSGPELKKPGETVKISCKASGYTFTTAGMQWVKKMPGKGFKWIGWINTHSGDPKYAEDFKGRFAFSLETYASTAYLQISNLKNEDTASYFCARTHIYDGYNYAMDYWGQGTSVTVSS VL: DVVMTQTPLSLPVSLGDQASISCRSSQSLVYSNGNTYLHWYLQKPGQSPKLLIYKVSNRFSGVPDRFSGSGSGTDFTLKISRVEAEDLGVYFCSQSTHVPFTFGSGTKLEIK
1.72
F263-4E11 (antibody, V domains shown, Mouse hybridoma mAb) VH: DVQLQESGPGLVKPSQSLSLTCTVTGYSITSDYAWNWIRQFPGNKLEWMGYIGYNGRTSYNPSLKSRISITRDTSKNQFFLQLNYVTTEDTATFYCARLGRGFAYWGQGTLVTVSA VL: DILMTQSPSSMSVSLGDTVSITCHASQGINSNIGWLLQKPGKSFKGLIYHGTNLEDGVPSRFSGSGSGTDYSLTISSLESEDFADYYCVQYAQFPYTFGGGTKLEIK
1.53
F263-5D8 (antibody, V domains shown, Mouse hybridoma mAb) VH: EVQLQQSGPDLVKPGSSVKISCKASGYTFTDYNIDWVKQSHGKSLEWIGTINPNYGGTSYNQKFKGKATLTVDKSSSTAYMELRSLTSEDSAVYYCARGYDYDLWFAYWGQGTLVTVSA VL: EIVLTQSPVFMAASPGEKVTITCSVSSSISSSNLHWYQQKSETSPKPWIYGTSNLASGVPVRFSGSGSGTSYSLTISSMEAEDAATYYCQQWSSYPLTFGAGTKLELK
1.49
F265-9C9 (antibody, V domains shown, Mouse hybridoma mAb) VH: QVQLQQPGAELVKPGASVKLSCKASGYTFTSYWMHWVKQRPGQDLEWIGEIDPSDSYTNYNQKFKGKATLTVDKSSSTAYIQLSSLTSEDSALYYCARFDFAYWGQGTLVTVSA VL: EIVLTQSPTLMAASPGEKVTITCSVSSSISSSNLHWYQQKSETSPKPWIYDTSNLASGVPIRFSGSGSGTSYSLTISSVEAEDAATYYCQQWSSYPLTFGSGTKLEIK
1.29
F266-11H3 (antibody, V domains shown, Mouse hybridoma mAb) VH: QIQLVQSGPELKKPGETVKISCKASGYTFTTAGMQWVQKMPGKGFKWIGWINTHSGDPKYAEDFKGRFAFSLETYASTAYLQISNLKNEDTATYFCARTHIYDGYNYAMDYWGQGTSVTVSS VL: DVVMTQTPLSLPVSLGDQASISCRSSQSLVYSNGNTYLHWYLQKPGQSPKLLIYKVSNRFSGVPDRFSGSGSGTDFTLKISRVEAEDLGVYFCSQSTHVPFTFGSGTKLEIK
1.78
F266-11C8 (antibody, V domains shown, Mouse hybridoma mAb; also called 11H5 (11C8)) VH: QIQLVQSGPELKKPGETVKISCKASGYTFTTAGMQWVQKMPGKGFKWIGWINTHSGDPKYAEDFKGRFAFSLETYASTAYLQISNLKNEDTASYFCARTHIYDGYNYAMDYWGQGTSVTVSS VL: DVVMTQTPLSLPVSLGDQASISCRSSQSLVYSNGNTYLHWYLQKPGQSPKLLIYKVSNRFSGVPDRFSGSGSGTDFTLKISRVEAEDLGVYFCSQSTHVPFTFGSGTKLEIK
1.72
F263-4B3 (antibody, V domains shown, Mouse hybridoma mAb) VH: EVQLQQSGPELVKPGSSVKISCKASGYTFTDYNMDWVKQSHGKSLEWIGTINPNNGGTSYNQKFKGKATLTVDKSSNTAYMELRSLTSEDSAVYYCARGYDYDLWFAYWGQGTLVTVSA VL: EIVLTQSPALMAASPGEKVTITCSVSSSISSSNLHWYQQKSETSPKPWIYGTSNLASGVPVRFSGSGSGTSYSLTISSMEAEDAATYYCQQWSSYPLTFGAGTKLELE
1.19
